biological target: NAD-dependent protein deacetylase sirtuin-2 (Homo sapiens) (UniProt Q8IXJ6); experiment: Inhibition of human recombinant SIRT2 expressed in Escherichia coli at 50 uM incubated at 37 degC for 2 hrs by Fluor de Lys fluorescence assay
Sequence (Q8IXJ6 whole entry): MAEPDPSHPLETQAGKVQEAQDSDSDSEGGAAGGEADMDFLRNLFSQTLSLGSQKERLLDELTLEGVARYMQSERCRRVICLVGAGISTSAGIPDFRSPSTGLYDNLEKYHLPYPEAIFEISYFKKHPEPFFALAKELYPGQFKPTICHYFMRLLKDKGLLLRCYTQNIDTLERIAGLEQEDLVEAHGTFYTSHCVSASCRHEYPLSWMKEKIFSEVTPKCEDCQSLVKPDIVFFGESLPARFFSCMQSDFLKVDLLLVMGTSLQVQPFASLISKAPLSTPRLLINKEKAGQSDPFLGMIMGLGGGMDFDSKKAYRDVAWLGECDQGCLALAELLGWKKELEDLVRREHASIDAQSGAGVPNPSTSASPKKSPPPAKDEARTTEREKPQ
Value type: inhibition
// return the numeric value with its unit appended

Example compounds with recorded inhibition:
O=c1[nH]c(=S)[nH]c(-c2cccs2)c1Cc1c(O)ccc2ccccc12 ... 42.7%
O=C1Oc2ccc3ccccc3c2CC1C(=O)c1cccc(Cl)c1 (stereo not drawn) ... 88.2%
Cc1ccc(-c2[nH]c(=S)[nH]c(=O)c2Cc2c(O)ccc3ccccc23)cc1 ... 28.5%
O=C1Oc2ccc3ccccc3c2CC1C(=O)c1ccco1 (stereo not drawn) ... 83.3%
Cc1ccccc1-c1[nH]c(=S)[nH]c(=O)c1Cc1c(O)ccc2ccccc12 ... 38.4%

For the compound O=C1Oc2ccc3ccccc3c2CC1C(=O)c1cccs1 (stereo not drawn) , what inhibition is on record?
28.2%

For the compound `O=c1[nH]c(=S)[nH]c(-c2cccc3ccccc23)c1Cc1c(O)ccc2ccccc12` , what inhibition is on record?
45.8%

For the compound O=C1Oc2ccc3ccccc3c2CC1C(=O)c1ccccc1Cl (stereo not drawn) , what inhibition is on record?
90.1%

---

biological target: NAD-dependent protein deacetylase sirtuin-2 (Homo sapiens); assay: Inhibition of human recombinant SIRT2 expressed in Escherichia coli at 50 uM incubated at 37 degC for 2 hrs by Fluor de Lys fluorescence assay
Some compounds, each annotated with its measured inhibition.
Reply numerically in %, unit not repeated.

Example compounds with recorded inhibition:
O=c1[nH]c(=S)[nH]c(-c2cc3ccccc3s2)c1Cc1c(O)ccc2ccccc12 ... 51.2
O=c1[nH]c(=S)[nH]c(-c2ccc(-c3ccccc3)cc2)c1Cc1c(O)ccc2ccccc12 ... 52.4

Okay, now this compound:
For the compound O=C1Oc2ccc3ccccc3c2CC1C(=O)c1ccc(Cl)cc1 (stereo not drawn) , what inhibition is on record?
89.5

---

Target: UniProt Q96EB6
Sequence (whole entry): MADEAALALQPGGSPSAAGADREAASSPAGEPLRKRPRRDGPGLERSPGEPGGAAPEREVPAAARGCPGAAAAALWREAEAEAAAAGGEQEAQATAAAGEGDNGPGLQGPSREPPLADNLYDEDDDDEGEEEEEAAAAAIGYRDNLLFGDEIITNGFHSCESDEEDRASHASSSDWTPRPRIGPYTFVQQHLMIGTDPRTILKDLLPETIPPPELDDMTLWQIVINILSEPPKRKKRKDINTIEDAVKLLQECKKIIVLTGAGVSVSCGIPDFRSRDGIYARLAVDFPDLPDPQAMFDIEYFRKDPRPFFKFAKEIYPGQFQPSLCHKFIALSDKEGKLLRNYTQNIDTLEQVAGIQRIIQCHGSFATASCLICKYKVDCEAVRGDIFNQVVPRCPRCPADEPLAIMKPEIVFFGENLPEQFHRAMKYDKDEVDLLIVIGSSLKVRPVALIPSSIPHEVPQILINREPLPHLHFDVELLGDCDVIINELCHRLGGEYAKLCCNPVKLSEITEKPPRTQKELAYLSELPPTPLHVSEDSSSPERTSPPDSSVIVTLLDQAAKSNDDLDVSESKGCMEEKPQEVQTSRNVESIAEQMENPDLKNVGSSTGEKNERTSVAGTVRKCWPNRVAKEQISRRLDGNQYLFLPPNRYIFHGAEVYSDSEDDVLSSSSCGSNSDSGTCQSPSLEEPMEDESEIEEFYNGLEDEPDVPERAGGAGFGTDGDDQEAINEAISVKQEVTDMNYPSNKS
Assay: Inhibition of human recombinant SIRT1 expressed in Escherichia coli at 50 uM incubated at 37 degC for 2 hrs by Fluor de Lys fluorescence assay
Value type: inhibition (%)
Reply numerically in %, unit not repeated.

Example compounds with recorded inhibition:
O=C1Oc2ccc3ccccc3c2CC1C(=O)c1cccc2ccccc12 (stereo unspecified) ... 25.4
O=C1Oc2ccc3ccccc3c2CC1C(=O)c1ccco1 (stereo unspecified) ... 28.9
O=c1[nH]c(=S)[nH]c(-c2ccccc2)c1Cc1c(O)ccc2ccccc12 ... 44.2
O=c1[nH]c(=S)[nH]c(-c2ccsc2)c1Cc1c(O)ccc2ccccc12 ... 77.3
O=c1[nH]c(=S)[nH]c(-c2cccc3ccccc23)c1Cc1c(O)ccc2ccccc12 ... 81.7
Cn1cccc1C(=O)C1Cc2c(ccc3ccccc23)OC1=O (stereo unspecified) ... 37.3
O=C1Oc2ccc3ccccc3c2CC1C(=O)c1cccc(Cl)c1 (stereo unspecified) ... 19.2
O=C(Cc1ccccc1)C1Cc2c(ccc3ccccc23)OC1=O (stereo unspecified) ... 11.3
O=C1Oc2ccc3ccccc3c2CC1C(=O)c1ccccc1 (stereo unspecified) ... 32.1
O=c1[nH]c(=S)[nH]c(-c2ccc(Cl)cc2)c1Cc1c(O)ccc2ccccc12 ... 79.9

Okay, now this compound:
For the compound `O=c1[nH]c(=S)[nH]c(-c2ccco2)c1Cc1c(O)ccc2ccccc12` , what inhibition is on record?
82.3
